- assay.summary: Selectivity index, ratio of IC50 for African green monkey Vero cells to IC50 for Trypanosoma cruzi TINF/CH/1956/Tulahuen DTU 6 epimastigotes
- Type: toxicity
- conditions.used: read-out: Ratio IC50
Labels assigned by selectivity ratio range: low bracket: < 1; middle bracket: ≥ 1 and < 3; high bracket: ≥ 3

- compound.string: "O=C(CCN1CCN(c2ccc(Cl)cc2)CC1)c1ccc(F)c(Cl)c1"
  assigned.category: "high bracket"
- compound.string: "O=C(CCN1CCN(c2ccc(F)cc2)CC1)c1ccccc1"
  assigned.category: "low bracket"
- compound.string: "COc1ccccc1N1CCN(CCC(=O)c2ccc(F)cc2)CC1"
  assigned.category: "low bracket"
- compound.string: "COc1ccc(C(=O)CCN2CCN(c3ccc(C(F)(F)F)cc3)CC2)cc1"
  assigned.category: "high bracket"
- compound.string: "Cc1ccc(C(=O)CCN2CCN(c3ccc(F)cc3)CC2)cc1"
  assigned.category: "middle bracket"
- compound.string: "O=C(CCN1CCN(c2ccccc2F)CC1)c1ccc(F)cc1"
  assigned.category: "low bracket"
- compound.string: "O=C(CCN1CCN(c2ccc(Cl)cc2)CC1)c1ccc(Br)cc1"
  assigned.category: "middle bracket"
- compound.string: "O=C(CCN1CCN(c2ccc([N+](=O)[O-])cc2)CC1)c1ccc(F)c(Br)c1"
  assigned.category: "high bracket"
- compound.string: "O=C(CCN1CCN(c2ccc(C(F)(F)F)cc2)CC1)c1ccc(Br)cc1"
  assigned.category: "middle bracket"
